Test: Peroxide Value (PV, primary oxidation products) according to Ph. Eur. 2.5.5, before and after storage at 50° C. exposed to air
Assay type: physicochemical
Details: commercially available starting material as supplied
Protocol: An exemplary procedure for determining the Peroxide Value (PV) of a sample is performed as follows: Peroxide value=(S−B)*N thiosulfate*1000/weight of sample Primary oxidation products (hydroperoxides at double bonds) were quantified by determining the Peroxide Value (PV) according to Ph. Eur. 2.5.5 (01/2008:20505). Secondary oxidation products (carbonyl compounds) were quantified by determining the Anisidine Value (AV) according to Ph. Eur. 2.5.36 (01/2008:20536). […]
observed.property: Peroxide Value (mmol/kg)
Numbers only, in mmol/kg.

(Q) Query Peroxide Value for CCCCC/C=C\C/C=C\C/C=C\CCCCC(=O)OCC
(A) 52.1
